I'd appreciate it if you could supply T/C values for the items below.
Test system: CD2F1 mice, L1210 leukemia ip, survival T/C
Experiment: NCI In Vivo Anticancer Drug Screen. Data for tumor model L1210 Leukemia (intraperitoneal) in CD2F1 (CDF1) mice
Details: endpoint: mean survival time; dose: 200.0 mg/kg/injection; schedule: Q01DX009 (ip); vehicle: other; higher = longer survival
Inconclusive results and toxic doses are left out.

Lookup: Output measured T/C for this item: CC(C)OC(=O)Nc1cc(F)ccc1F
Found: 94 % of control

Lookup: Output measured T/C for this item: CCOC1(C)OC2OC(COC(c3ccccc3)(c3ccccc3)c3ccccc3)C(O)C(O)C2O1 (configuration not stated)
Found: 101 % of control

Lookup: Output measured T/C for this item: Cc1cc(C)cc(NCCC#N)c1
Found: 98 % of control

Lookup: Output measured T/C for this item: CC(=O)OCC1OC(OC(C)=O)C(NC(=O)Nc2cccc([N+](=O)[O-])c2)C(OC(C)=O)C1OC(C)=O (configuration not stated)
Found: 93 % of control

Lookup: Output measured T/C for this item: CCCCCCCC(O)CCCCCCC
Found: 98 % of control

Lookup: Output measured T/C for this item: CCOC(=O)C1C(=O)N(C)C(=O)N1c1ccccc1 (configuration not stated)
Found: 87 % of control

Lookup: Output measured T/C for this item: CN(C)C=Nc1ccc([N+](=O)[O-])c2ccccc12
Found: 103 % of control

====

I'd appreciate it if you could supply T/C values for the items below.
Test system: CD2F1 mice, L1210 leukemia ip, survival T/C
Assay: NCI In Vivo Anticancer Drug Screen. Data for tumor model L1210 Leukemia (intraperitoneal) in CD2F1 (CDF1) mice
Conditions: endpoint: mean survival time; dose: 400.0 mg/kg/injection; schedule: Q01DX009 (ip); vehicle: saline with Tween-80; higher = longer survival
Toxic doses and inconclusive results are not listed.

Lookup: Output measured T/C for this item: Nc1nnnn1C1CCCCC1
Found: 92 % of control

Lookup: Output measured T/C for this item: COc1ccccc1NC(=O)Nc1cccc(Cl)c1
Found: 88 % of control

Lookup: Output measured T/C for this item: COC(=O)C1(C(=O)OC)C2C(=O)C3C(C21)C3(C(=O)OC(C)(C)C)C(=O)OC(C)(C)C (stereo unspecified)
Found: 93 % of control

Lookup: Output measured T/C for this item: CC[C@H](CC[C@@H](C)[C@H]1CC[C@H]2[C@@H]3CC=C4C[C@@H](O)CC[C@]4(C)[C@H]3CC[C@]12C)C(C)C
Found: 95 % of control

Lookup: Output measured T/C for this item: CC(C)(C)C(=O)CC(=O)C(C)(C)C.CC(C)(C)C(=O)CC(=O)C(C)(C)C.CC(C)(C)C(=O)CC(=O)C(C)(C)C.[Fe]
Found: 95 % of control

Lookup: Output measured T/C for this item: COc1ccc(C=Nc2ccc(C)cc2)cc1
Found: 104 % of control

Lookup: Output measured T/C for this item: O=C(NCCN=Cc1ccccc1)c1ccccc1
Found: 97 % of control

Lookup: Output measured T/C for this item: O=[N+]([O-])c1cccc(S(=O)(=O)Nc2ccccc2Cl)c1
Found: 95 % of control

Lookup: Output measured T/C for this item: CCCCCCCCCC(=O)NC(=S)Nc1cccc(C(C)=O)c1
Found: 95 % of control

Lookup: Output measured T/C for this item: COc1cccc(C#Cc2ccccc2NC(C)=O)c1
Found: 94 % of control

Lookup: Output measured T/C for this item: CC(=O)OCc1ccc2ccccc2c1
Found: 118 % of control

====

System: CD2F1 mice, L1210 leukemia ip, survival T/C
Assay: NCI In Vivo Anticancer Drug Screen. Data for tumor model L1210 Leukemia (intraperitoneal) in CD2F1 (CDF1) mice
Conditions: endpoint: mean survival time; dose: 100.0 mg/kg/injection; schedule: Q01DX009 (ip); vehicle: saline with Tween-80; higher = longer survival
Inconclusive results and toxic doses are left out.
I'd appreciate it if you could supply T/C values for the items below.

Lookup: Output measured T/C for this item: CCOC(=O)c1ccc(NC(=O)NC)cc1
Found: 93 % of control

Lookup: Output measured T/C for this item: COc1ccc(OCCOC(=O)Nc2ccc(Cl)cc2OC)cc1
Found: 93 % of control

Lookup: Output measured T/C for this item: CS(=O)(=O)OCCCN(CCCOS(C)(=O)=O)c1ccc(C=Nc2ccc(-c3csc(COc4ccc(Cl)cc4Cl)n3)cc2)cc1
Found: 93 % of control

Lookup: Output measured T/C for this item: C/C=C\c1ccc(OCCOC(=O)Nc2c(Cl)cccc2Cl)c(OC)c1
Found: 94 % of control

Lookup: Output measured T/C for this item: CC(C)N1C(=O)[N+](C)(C)N=C1[O-]
Found: 89 % of control

Lookup: Output measured T/C for this item: CCCCCCCCCCCCCC(=O)N1CCOCC1
Found: 96 % of control

Lookup: Output measured T/C for this item: COCC1C(N)C(C)NC(Cl)C1C#N (configuration not stated)
Found: 97 % of control

Lookup: Output measured T/C for this item: COC(=O)C1(C(=O)OC)C2C(=O)C3C(C21)C3(C(=O)OC(C)(C)C)C(=O)OC(C)(C)C (configuration not stated)
Found: 96 % of control

Lookup: Output measured T/C for this item: CSc1ccc(SC)nn1
Found: 102 % of control

Lookup: Output measured T/C for this item: Cc1c(C)c([N+](=O)[O-])c(Br)c(C)c1[N+](=O)[O-]
Found: 103 % of control

Lookup: Output measured T/C for this item: CS(=O)(=O)c1cc(C(F)(F)F)cc([N+](=O)[O-])c1Cl
Found: 103 % of control

Lookup: Output measured T/C for this item: CCCCCCCCCCCSCCCCCCCCCCC
Found: 104 % of control

====

Tested on: CD2F1 mice, L1210 leukemia ip, survival T/C
Experiment: NCI In Vivo Anticancer Drug Screen. Data for tumor model L1210 Leukemia (intraperitoneal) in CD2F1 (CDF1) mice
Conditions: endpoint: mean survival time; dose: 100.0 mg/kg/injection; schedule: Q01DX009 (ip); vehicle: Klucel (hydroxypropylcellulose) (HPC)
Toxic doses and inconclusive results are not listed. The calls were made as follows: active = survival T/C of 150% or more; inactive = T/C below 125% in these data.
Pick from active, inactive when you respond.

Lookup: Could you check what this test reported for COC(=O)COc1cccc(NC(=O)CC(=O)c2cccc([N+](=O)[O-])c2)c1 ?
Found: inactive

Lookup: Could you check what this test reported for CN(C)c1ccc(/C=C/c2ccc3ccccc3n2)c(F)c1 ?
Found: inactive

Lookup: Could you check what this test reported for CN(C)N=Nc1ccc(/C=C/C(=O)O)cc1 ?
Found: active

Lookup: Could you check what this test reported for Cc1ccc([N+](=O)[O-])cc1NC(=O)Nc1cc([N+](=O)[O-])ccc1F ?
Found: inactive

Lookup: Could you check what this test reported for CC1(C)OC(C(O)COC(=O)c2ccccc2)C(C(O)COC(=O)c2ccccc2)O1 (stereo not drawn) ?
Found: inactive

Lookup: Could you check what this test reported for Cc1ccc2c(c1)-c1[nH]c3ccccc3c1CS2 ?
Found: inactive

Lookup: Could you check what this test reported for CCCCCCCCCCCCCCCCOc1ccccc1/C=N/O ?
Found: inactive

Lookup: Could you check what this test reported for CCCCOC(=O)c1ccc(NC(=O)Nc2cc([N+](=O)[O-])ccc2C)cc1 ?
Found: inactive

Lookup: Could you check what this test reported for O=C1c2ccccc2CCC1(Br)C(Br)c1ccccc1 (stereo not drawn) ?
Found: inactive

Lookup: Could you check what this test reported for O=C(N/N=C/c1ccc(O)cc1)c1ccccc1 ?
Found: inactive

Lookup: Could you check what this test reported for CNC(=O)c1n[nH]c(C)c1[N+](=O)[O-] ?
Found: inactive

Lookup: Could you check what this test reported for CC(=O)Nc1ccc(S(N)(=O)=O)cc1 ?
Found: inactive

Lookup: Could you check what this test reported for Nc1nc2ccc(Cl)cc2[nH]1 ?
Found: inactive

====

Test system: CD2F1 mice, L1210 leukemia ip, survival T/C
Experiment: NCI In Vivo Anticancer Drug Screen. Data for tumor model L1210 Leukemia (intraperitoneal) in CD2F1 (CDF1) mice
Details: endpoint: mean survival time; dose: 200.0 mg/kg/injection; schedule: Q04DX003 (ip); vehicle: other
Inconclusive results and toxic doses are left out. Rule for the calls: active = survival T/C of 150% or more; inactive = T/C below 125% in these data.
Pick from yes (1) (active), no (0) (inactive) when you respond.

Lookup: Could you check what this test reported for Cc1ccc(S(=O)(=O)N/N=C/c2ccc(O)c(O)c2)cc1 ?
Found: no (0)

Lookup: Could you check what this test reported for Cc1cc(C)cc(NCCC#N)c1 ?
Found: no (0)

Lookup: Could you check what this test reported for O=C(O)C1CCCCC1C(=O)O.[NH-]C1CCCCC1[NH-].[Pt+2] (configuration not stated) ?
Found: yes (1)

Lookup: Could you check what this test reported for O=C(O)CC(Sc1ccccc1)c1ccccc1 (configuration not stated) ?
Found: no (0)

Lookup: Could you check what this test reported for CCOn1nc(-c2ccccc2)oc1=O ?
Found: no (0)

Lookup: Could you check what this test reported for CC(C)C(C(=O)c1ccccc1)C(c1ccccc1)c1ccccc1 (configuration not stated) ?
Found: no (0)

Lookup: Could you check what this test reported for O=C(NC/C=C/Br)NC1CCCc2ccccc21 (configuration not stated) ?
Found: no (0)
